Tested on: MALME-3M melanoma
Protocol: NCI-60 one-dose screen, 48 h (100 = growth as untreated, 0 = no growth, -100 = all killed)
Experimental parameters: 10 µM
This is part of a sample that, as a whole, favours compounds with a hit. Of some 83,000 tested, about 20% had one in any assay.
Property: growth (%)
Numeric answer only, unit % assumed.

Here is how some molecules turned out for growth.
O=C(Nc1cc(Cl)cc2c1-c1ccc(Cl)cc1C2O)C(Cl)Cl (stereo not given)
105
COc1ccc(-c2nn(-c3cccc(Cl)c3)cc2-c2cc(-c3ccccc3)nc(N)n2)cc1
52.1
Cc1cc(CC(C)CC(C)(C)C)n(O)c(=O)c1 (stereo not given) (tested in a mixture with another compound)
8.49
CN(C)CCOc1cccc(NC2=C(Cl)C(=O)C(Nc3cccc(OCCN(C)C)c3)=C(Cl)C2=O)c1
-74.8
OC[C@H]1OC([S-])[C@H](O)[C@@H](O)[C@@H]1O.[Au+] (stereo not given in full)
137
Cc1cc(C)nc(NS(=O)(=O)c2ccc(Nc3nc4nc(NCc5ccccc5)nc(-c5ccc(O)cc5)c4c(=O)[nH]3)cc2)n1
-12.6

growth reported for this molecule O=C1CC(SC(=S)C2CCCC2=O)C(=O)N1 (stereo not given) : 104

growth reported for this molecule O=[N+]([O-])c1ccc2ncccc2c1Cl : 69

growth reported for this molecule Clc1ccc(C2=NN=C3C(Cc4ccccc4)=Nc4ccccc4N3C2)cc1 : 95.5

growth reported for this molecule O=C(CCl)Oc1ccc(OC(=O)CCl)cc1 : 88.4

###

Tested on: U251 CNS
Protocol: NCI-60 one-dose screen, 48 h (100 = growth as untreated, 0 = no growth, -100 = all killed)
Experimental parameters: 10 µM
Compounds without any hit were thinned out: in the full panel of roughly 83,000, 20% have a hit.
So basically: is growth under 30%? Then 1. Not under? Then 0.

O=C(Nc1ccc(OS(=O)(=O)c2ccccc2)cc1)C1CCCCC1
0
N#CC1=C(N)Oc2cc(N)ccc2C1c1cccnc1 (stereo not given)
0

Q: Bench note: check whether CCN(CC)c1ccc(/C=C2\SC(=O)C(Nc3nnc(-c4cccnc4SCc4ccccc4)o3)C2=O)cc1 (stereo not given) shows growth below 30%
A: 1

Q: Bench note: check whether Cc1ccc(NCCNCC(C)(C)O)c2c(=O)c3ccc(Cl)cc3sc12 shows growth below 30%
A: 1

Q: Bench note: check whether C=C(NC(=O)C(=C)NC(=O)c1csc(C2=NC3c4csc(n4)C4NC(=O)c5csc(n5)C(C(C)(O)C(C)O)NC(=O)C5CSC(=N5)C(=CC)NC(=O)C(C(C)O)NC(=O)c5csc(n5)C3(CC2)NC(=O)C(C)NC(=O)C(=C)NC(=O)C(C)NC(=O)C(C(C)CC)NC2C=Cc3c(C(C)O)cc(nc3C2O)C(=O)OC4C)n1)C(N)=O (stereo not given) shows growth below 30%
A: 1

Q: Bench note: check whether CCCN1CN2C(=O)N3CN(CCC)CN4C(=S)N(C1)C2C34 (stereo not given) shows growth below 30%
A: 0

###

Tested on: MDA-MB-231 breast
Protocol: NCI-60 one-dose screen, 48 h (100 = growth as untreated, 0 = no growth, -100 = all killed)
Experimental parameters: 10 µM
This is part of a sample that, as a whole, favours compounds with a hit. Of some 83,000 tested, about 20% had one in any assay.
Property: growth (%)
Numeric answer only, unit % assumed.

Here is how some compounds turned out for growth.
O=C(CCc1nnc2sc(-c3cc(O)c(O)c(O)c3)nn12)c1nc2ccccc2[nH]1
102
CC(C)(C)c1nn(-c2ccccc2)c2c1CC1(CN2Cc2ccc(Cl)cc2)C(=O)c2ccccc2C1=O
83.2

growth reported for this compound COc1ccc2nc(Cl)c(Cn3nnc(Cc4ccccc4)n3)cc2c1 : 50.7

growth reported for this compound S=C(SSC(=S)N(c1ccccc1)c1ccccc1)N(c1ccccc1)c1ccccc1 : 114

growth reported for this compound O=C(CCl)Oc1ccc(OC(=O)CCl)cc1 : 81.1

growth reported for this compound O=C(O)Cc1ccc(O)c(O)c1 : 99.2

growth reported for this compound COc1cc(-c2nn(-c3cccc(NC(=O)CCN4CCN(Cc5ccccc5)CC4)c3)cc2-c2ccncc2)ccc1Cl : -14.7

growth reported for this compound CN1CCc2c(sc3nc4n(-c5ccc(Cl)cc5)cnn4c(=O)c23)C1 : 98.7

growth reported for this compound CCc1ccc(-c2ccc(-n3nc(C)c4c(N)nc(Cc5ccccc5)nc43)cc2)cc1 : 38.2

growth reported for this compound O=S(=O)(Oc1ccc(-c2ccc3sccc3c2)cc1)c1ccccc1 : 97.3

###

Tested on: OVCAR-5 ovarian
Protocol: NCI-60 one-dose screen, 48 h (100 = growth as untreated, 0 = no growth, -100 = all killed)
Experimental parameters: 10 µM
This is part of a sample that, as a whole, favours compounds with a hit. Of some 83,000 tested, about 20% had one in any assay.
Measured growth, listed per entry for reference.
Numeric answer only, unit % assumed.

O=C(N/N=C/c1cc([N+](=O)[O-])ccc1O)c1cccc2ccccc12
47.2

growth reported for this compound O=C1Cc2cc(CCN3CCN(c4nsc5ccccc45)CC3)c(Cl)cc2N1 : 108

growth reported for this compound OCCn1cccn1 : 107

###

Test system: OVCAR-3 ovarian
Protocol: NCI-60 one-dose screen, 48 h (100 = growth as untreated, 0 = no growth, -100 = all killed)
Experimental parameters: 10 µM
The panel holds about 83,000 compounds, 20% with a hit somewhere; the sample as a whole holds those more often.
Is growth at least 90%? Then yes. If not, no.

CC1CCCC(C(=O)O)C1C(=O)O (stereo unspecified)
yes
COc1cc(/C=C/c2cc(/C=C/c3ccc(O)c(OC)c3)n(C(=O)Nc3ccc(C)cc3)n2)ccc1O
no
O=C(CCCSc1nc(-c2ccccc2)cc(-c2ccc(Cl)cc2)n1)NO
no
Nc1nc(-c2ccc(Cl)cc2)cc(-c2cc3ccccc3oc2=O)n1
yes

Query compound follows.
Q: Given COc1cccc(CNc2cccc3cn[nH]c23)c1O , state whether its growth is at least 90%.
A: yes

###

Measured growth, listed per entry for reference.
System: NCI-H23 lung
Protocol: NCI-60 one-dose screen, 48 h (100 = growth as untreated, 0 = no growth, -100 = all killed)
Experimental parameters: 10 µM
About 83,000 compounds went through this panel and 20% of them were active in at least one assay; those are over-represented in the sample as a whole.
Numeric answer only, unit % assumed.

Here is how some compounds turned out for growth.
COc1ccccc1N1CCCSC1=Nc1ccccc1
104
Cc1ccc(-c2c3c(N)nc(-c4cccnc4)nc3nc3c2c(C)nn3-c2ccccc2)cc1
97.9

Considering COc1ccc2c(c1)CC=C1[C@@H]2CC[C@]2(C)C(=O)/C(=N/O)C[C@@H]12 , its growth with NCI-H23 lung was recorded as 102

Considering CC(=O)OC1C=CC(OC(C)=O)O1 (stereo unspecified) , its growth with NCI-H23 lung was recorded as 89.4

Considering CC(=O)Nc1ccc(S(=O)(=O)N/N=C(\C)c2ccc(C)cc2C)cc1 , its growth with NCI-H23 lung was recorded as 105

Considering CC(C)(C)OC(=O)N1CCc2c(sc3ncnc(N/N=C/c4ccc(Br)cc4)c23)C1 , its growth with NCI-H23 lung was recorded as 71.8

###

Tested on: SK-MEL-2 melanoma
Protocol: NCI-60 one-dose screen, 48 h (100 = growth as untreated, 0 = no growth, -100 = all killed)
Experimental parameters: 10 µM
Compounds without any hit were thinned out: in the full panel of roughly 83,000, 20% have a hit.
Property: growth (%)
Numeric answer only, unit % assumed.

Here is how some molecules turned out for growth.
CCOc1ccccc1/C=N/N1CCCCCC1
113
O=C1/C(=C/c2ccc([N+](=O)[O-])s2)Oc2cc(Cl)ccc21
-49.9
Cc1n[nH]c(C)c1N=Nc1cccc2c1C(=O)c1ccccc1C2=O
105
Cc1cn(-c2cc(F)cc(NC(=O)c3ccc(C)c(Nc4nccc(-c5cccnc5)n4)c3)c2)cn1
64.4

growth reported for this molecule O=c1oc2c(cc1-c1ccc(F)cc1)C(O)Oc1ccccc1-2 (stereo unspecified) : 76.1

growth reported for this molecule COc1cc(/C=C/c2cc(/C=C/c3ccc(O)c(OC)c3)n(C(=O)Nc3ccccc3Cl)n2)ccc1O : -12.3

growth reported for this molecule Cc1cc(CCNC=O)c(C)c2c1sc1ccccc12 : 109

growth reported for this molecule CCN(CC)CCCC(Nc1c2ccc(Cl)cc2nc2ccc(OC)cc12)c1ccc(F)cc1 (stereo unspecified) : 116

growth reported for this molecule CCOC(=O)C(C)(c1ccccc1)c1ccccc1 : 114

growth reported for this molecule N#Cc1c(N)nc(-c2cc(F)cc(C(F)(F)F)c2)nc1-c1ccccc1F : 90.4

###

Tested on: MDA-MB-231 breast
Protocol: NCI-60 one-dose screen, 48 h (100 = growth as untreated, 0 = no growth, -100 = all killed)
Experimental parameters: 10 µM
The panel holds about 83,000 compounds, 20% with a hit somewhere; the sample as a whole holds those more often.
Property: growth (%)
Numeric answer only, unit % assumed.

COc1ccc(-c2csc(NC(=O)c3ccc(Cc4n[nH]c(=O)c5cccnc45)cc3)n2)cc1
79.7
O=S(=O)(Oc1ccc(-c2ccc3sccc3c2)cc1)c1ccc(F)cc1
108
COc1cc(C(=O)/C=C/c2c[nH]c3ccccc23)cc(OC)c1OC
13
COc1cc(C(=O)N2CCN(c3cc4c(cc3F)c(=O)c(C(=O)NO)cn4C3CC3)CC2)cc(OC)c1OC
98.8
CN(C)c1ccc(/C=N/NC(=O)c2ccccc2Nc2cccc(C(F)(F)F)c2)cc1
70.9

Considering Cc1ccc(S(=O)(=O)N(C)CCCCCC(=O)O)cc1 , its growth with MDA-MB-231 breast was recorded as 110
